Each recorded value in this set is attributed to ChEMBL document CHEMBL5058577.

# Tested on: HEK-293T
# method description: Multiplex assay against HEK293T
# Format: toxicity, cell-based
# condition label: human, 24 h, 1 µM, compound concentration 1 uM, replicate 2
Non-standard residues stand in square brackets, D forms with d. Residues, ends and D or L forms follow the SMILES beside them.
measured property: Population Normal (%)
Write down the numeric answer in % and omit the unit.

Please fill in: Population Normal (%) reported for CC(F)(F)CN1CCOc2c(nn(-c3ccccc3Cl)c2-c2ccc(Cl)cc2)C1=O = 93

Lab note: CN1CCN(c2ccc(Nc3c4ccccc4nc4ccccc34)cc2)CC1.Cl.Cl.O gave Population Normal (%) of 99

Given item O=C(NCCNCC(O)COc1ccc(O)cc1)N1CCOCC1.O=C(NCCNCC(O)COc1ccc(O)cc1)N1CCOCC1.O=C(O)/C=C/C(=O)O (stereo not drawn) [XAMOTEROL FUMARATE] , the value recorded as its Population Normal (%) is 86

Input COc1c(Nc2ccc(S(C)(=O)=O)nc2C)ncnc1OC1CCN(C(=O)OC(C)C)CC1 . Output Population Normal (%): 96

Please fill in: Population Normal (%) reported for COc1ccc2c(c1OCc1ccccc1)C[C@@H](C(=O)O)N(C(=O)C(c1ccccc1)c1ccccc1)C2 = 93

Population Normal (%) in this record for Cl.Cl.OCCOCCN1CCN(C(c2ccccc2)c2ccc(Cl)cc2)CC1 (stereo not drawn) [HYDROXYZINE HYDROCHLORIDE] : 86

compound CCc1nn2c(C)cc(C)nc2c1Cc1ccc(-c2nnc(C3CCNCC3)o2)cc1 , Population Normal (%) observed: 94

Recorded Population Normal (%) (compound C[C@H](NC(=O)CNC(=O)c1cccc(Cl)c1)c1ccccc1 ): 97

Per the record, Cc1ccc(OCC(O)C(C)NC(C)C)c2c1CCC2.Cl (stereo not drawn) has Population Normal (%) of 95

Input CC(C)C[C@@H]1NC(=O)[C@@H](C(C)C)NC(=O)[C@@H]2CCCN2C(=O)[C@@H](CC(=O)O)NC(=O)[C@@H](Cc2c[nH]c3ccccc23)NC1=O [BQ-123] (cyclo(L[dW][dD]P[dV])) . Output Population Normal (%): 94

So, S=C(NCCCc1c[nH]cn1)NCCCN(Cc1ccc(Cl)c(Cl)c1)c1ccc(Br)cn1 ? Its Population Normal (%) was 86

For O=c1nc2[nH]c3ccccc3nc-2c(=O)[nH]1 the compound record lists Population Normal (%) as 92

Reported Population Normal (%) ( Cc1cc(-c2ccc3c(c2)CC[C@H]3N2CC3(CCN(C(=O)Cc4cn5cc(C)sc5n4)CC3)C2)ncn1 ) = 92

The value of Population Normal (%) measured for the compound CCn1c(-c2nc3cc(C(=O)N4CCCC(N)C4)ccc3n2C)cc2ccccc21.Cl (stereo not drawn) turned out to be 95

The compound identified as OCCCNc1cc(-c2ccnc(Nc3cccc(Cl)c3)n2)ccn1 registered its Population Normal (%) at 84

For record COCCn1c(C)c(C)s/c1=N\C(=O)C1C(C)(C)C1(C)C the listed Population Normal (%) is 92

The measured Population Normal (%) associated with CN(C)C/C=C/C(=O)Nc1ccc(C(=O)N2CCCC(Nc3ncc(Cl)c(-c4c[nH]c5ccccc45)n3)C2)cc1 (stereo not drawn) reads 73

Memo: CN(C)C(=O)Cn1cc(-c2ccc(-c3nnc4ccccn34)cc2)cn1 , reported Population Normal (%): 92
